Reported pKd values are given for each entry in this list.
# EXPERIMENTAL TARGET: T1, ScPif1p R594A/K595A (Saccharomyces cerevisiae, UniProt P07271 237-780, R594A;K595A)
# T1 sequence: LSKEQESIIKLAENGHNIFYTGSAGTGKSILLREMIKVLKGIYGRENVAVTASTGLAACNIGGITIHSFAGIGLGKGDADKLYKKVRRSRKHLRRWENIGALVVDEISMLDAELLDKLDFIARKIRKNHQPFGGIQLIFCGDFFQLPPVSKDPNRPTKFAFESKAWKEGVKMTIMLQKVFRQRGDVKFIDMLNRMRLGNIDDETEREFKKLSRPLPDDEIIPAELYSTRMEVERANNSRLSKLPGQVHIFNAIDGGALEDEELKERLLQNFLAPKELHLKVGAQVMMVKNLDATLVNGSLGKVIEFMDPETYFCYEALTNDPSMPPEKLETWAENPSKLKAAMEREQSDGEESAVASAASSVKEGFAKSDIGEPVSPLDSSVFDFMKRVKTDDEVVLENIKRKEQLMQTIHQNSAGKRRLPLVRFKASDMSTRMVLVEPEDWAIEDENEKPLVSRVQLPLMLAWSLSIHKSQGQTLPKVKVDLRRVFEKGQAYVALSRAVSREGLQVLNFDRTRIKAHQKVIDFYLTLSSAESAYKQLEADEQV
# MEASUREMENT DESCRIPTION: fluorescence anisotropy
In simple prose, pKd is minus the logarithm base ten of a concentration in moles per litre.

{"BINDER": "dsDNA16bp (dsDNA) DNA 1: CTCTGCTCGACGGATT DNA 2: AATCCGTCGAGCAGAG", "pKd": 7.10}
{"BINDER": "GTGTGTGTGGTG (ssDNA) [GR12]", "pKd": 7.98}

Lab note: next binder to report on.
# query: pKd of entry AGGGTGGGTGGGTGGGT (structured_DNA) [F-G417]
7.14

Cited source: paper PMC5814829
